The measurements presented in this section are drawn from patent US20110053892A1.

System: HCV Genotype 1B replicon cells
Format: cell-based
reported-conditions: Table 3; cytotoxicity, cell titer glo
Experimental: The genotype 1a replicon contains several adaptive mutations (NS4B Q31H, NS5A K68R, NS5A S232I), the luciferase gene and encodes for neomycin resistance. […] Luciferase activity was measured 48 hours later by adding a Steady glo (Promega, Madison, Wis.). […] Under the same condition, cytotoxicity of the compounds was determined using cell titer glo (Promega, Madison, Wis.). […]
List of CC50 values.
readout-kind: CC50

>  <compound>
O=C(OCCOCCO)C(c1cc(-c2ccc(C3CC3)cc2C(F)(F)F)no1)n1cc2nc(-c3cccc(F)c3F)nc-2cn1 (stereo not shown) [Compound 179]

>  <readout-kind>
CC50

>  <result>
50 µM

$$$$
>  <compound>
CCCOC(=O)C(c1cc(-c2ccc(C3CC3)cc2C(F)(F)F)no1)n1cc2nc(-c3cccc(F)c3F)nc-2cn1 (stereo not shown) [Compound 184]

>  <readout-kind>
CC50

>  <result>
25 µM

$$$$
>  <compound>
COC(=O)C(c1cc(-c2ccc(C3CC3)cc2C(F)(F)F)no1)n1cc2nc(-c3cccc(F)c3F)nc-2cn1 (stereo not shown) [Compound 178]

>  <readout-kind>
CC50

>  <result>
25 µM

$$$$
>  <compound>
O=C(OCCCO)C(c1cc(-c2ccc(C3CC3)cc2C(F)(F)F)no1)n1cc2nc(-c3cccc(F)c3F)nc-2cn1 (stereo not shown) [Compound 182]

>  <readout-kind>
CC50

>  <result>
> 50 µM

$$$$
